assay: Particle size distribution by Microtrack HRA; format: physicochemical
attributeMeasured: (vii) Maximum particle diameter (μm)
Report only the number, with the unit μm understood.

// solved cases for (vii) Maximum particle diameter follow
>>> observedresult("O=P1(Cc2ccccc2)OCC2(CO1)COP(=O)(Cc1ccccc1)OC2 (single isomer, unassigned) [FR-6]")
140
>>> observedresult("O=P1(CCc2ccccc2)OCC2(CO1)COP(=O)(CCc1ccccc1)OC2 (stereo not drawn)")
140
>>> observedresult("CC(c1ccccc1)P1(=O)OCC2(CO1)COP(=O)(C(C)c1ccccc1)OC2 (stereo not drawn)")
160

Exercise: Look up (vii) Maximum particle diameter for this molecule: O=P1(C(c2ccccc2)c2ccccc2)OCC2(CO1)COP(=O)(C(c1ccccc1)c1ccccc1)OC2 (stereo not drawn)
Key: 180

Exercise: Quick check: (vii) Maximum particle diameter of O=P1(Cc2ccccc2)OCC2(CO1)COP(=O)(Cc1ccccc1)OC2 (single isomer, unassigned) [FR-5] ?
Key: 300

Exercise: Look at this molecule and give its reported (vii) Maximum particle diameter. O=P1(Cc2ccccc2)OCC2(CO1)COP(=O)(Cc1ccccc1)OC2 (single isomer, unassigned) [FR-1]
Key: 150

Values were extracted from patent US10919923B2.
